# System: K-562 leukemia
# PROTOCOL DESCRIPTION: NCI tumour cell line growth inhibition, 48 h
OBSERVATION TYPE: TGI

Below, each entry is followed by its recorded TGI result.
| COMPOUND | RESULT |
| --- | --- |
| CCOC(=O)c1[nH]cc(C)c1-c1c[nH]c2ccccc12 | > 80.4 µM |
| CC(=O)OC[C@@]1(C)[C@@H]2[C@@H]3[C@@]4(CO[C@]3(C)C(=O)[C@@]3(O)C[C@H](C)[C@H](OC(C)=O)[C@@H]3[C@H]4OC(C)=O)[C@H](OC(=O)c3ccccc3)C[C@@H]21 | > 100 µM |
| COc1nc(N)nc2c1ncn2[C@@H]1O[C@H](CO)[C@@H](O)[C@@H]1O | > 100 µM |
| Nc1ccc(-c2nc3ccccc3o2)cc1S | > 100 µM |
| COC(=O)CS(=O)c1ccccc1 (stereo not given) | > 100 µM |
| Cc1ccc2[nH]c3c(c2c1)CCC/C3=N/N=C(N)N | 5 µM |
| CSc1nc(C)c(Br)c(=O)n1C1OC(COC(C)=O)C(OC(C)=O)C(OC(C)=O)C1OC(C)=O (stereo not given) | > 100 µM |
| Cc1cn([C@H]2C[C@@H]3[C@@H](COC(CCl)N3O)O2)c(=O)[nH]c1=O (stereo not given in full) | > 100 µM |

Recorded TGI of "CN(C)CCNC1=CC(=O)c2nc3ccccc3c3ccnc1c23" , please.
17.7 µM

Recorded TGI of COC(=O)C(Cc1ccccc1)NC(=O)Cn1ccnc1[N+](=O)[O-] (stereo not given) , please.
> 100 µM

----------
# Tested on: OVCAR-8 ovarian
# PROTOCOL DESCRIPTION: NCI tumour cell line growth inhibition, 48 h
A collection of compounds and their measured GI50

Below, each entry is followed by its recorded GI50 result.
| COMPOUND | GI50 |
| --- | --- |
| Cc1nn(-c2ccccc2)c2nc3c(nc12)C1=NCCN1C(c1ccc(Cl)cc1)N3 (configuration not stated) | 6290 nM |
| O=C(NCCNc1nccc(-c2c(-c3ccc(F)cc3)nc3sccn23)n1)c1ccccc1 | 5950 nM |
| Clc1ccc(C2=NN[C@H](c3cn(-c4ccccc4)nc3-c3ccccc3)C2)cc1 | 2740 nM |
| CCC[CH2][Sn]1([CH2]CCC)[O]CC(CN2CCOCC2)[O]1 (configuration not stated) | 3350 nM |
| C/C(=C\CCc1ccsc1)CC/C=C(\C)CCCN1CCC(CO)CC1 | 3020 nM |

Recorded GI50 of C=Cc1cc(OC)c2c(c1)c(=O)oc1c2cc(OC)c2c(O)ccc(C3OC(C)C(O)C(C)(O)C3O)c21 (configuration not stated) , please.
0.476 nM

Recorded GI50 of "O=C(O)c1cccc2cccc(C(=O)O)c12.[Hg]" , please.
20500 nM

Recorded GI50 of "Cc1sc(NC2=NC(=O)/C(=C\c3ccccc3)S2)nc1-c1nc(NC2=NC(=O)/C(=C\c3ccccc3)S2)sc1C" , please.
16500 nM

----------
# Test system: A498 renal
# PROTOCOL DESCRIPTION: NCI tumour cell line growth inhibition, 48 h; in the data active = GI50 below about 0.43 µM; inactive = the rest
Your response should consist of one outcome taken from active, inactive

| COMPOUND | CAT |
| --- | --- |
| O=C(Cc1ccccc1)NC(c1ccc(Cl)cc1)c1c(O)ccc2ccccc12 (centres undefined) | inactive |

Continue with the compound presented below.
Please share the test call associated with "CC(C)n1c(=O)n(C)c2cnc3cc(F)c(-c4ccc(OCCCN5CCCCC5)nc4)cc3c21" .
inactive

----------
# Test system: ACHN renal
# PROTOCOL DESCRIPTION: NCI tumour cell line growth inhibition, 48 h
OBSERVATION TYPE: GI50

| COMPOUND | GI50 |
| --- | --- |
| COc1ccc2c(c1)/C(=C\c1c(Cl)n(C)c3ccccc13)C(=O)N2 | 1.6 µM |

Recorded GI50 of "Cn1ccnc1C(=O)/C=C/c1ccc(CC(=O)Nc2ccc(F)cc2)cc1" , please.
5.74 µM

Recorded GI50 of "COc1cc(/C=C2\C(=O)N(c3ccccc3)c3ccccc32)cc(OC)c1OC" , please.
6.32 µM

Recorded GI50 of C=CC[C@@H]1/C=C(\C)C[C@H](C)C[C@H](OC)[C@H]2O[C@@](O)(C(=O)C(=O)N3CCCC[C@H]3C(=O)O[C@H](/C(C)=C/C3CC[C@@H](O)[C@H](OC)C3)[C@H](C)[C@@H](O)CC1=O)[C@H](C)C[C@@H]2OC (stereo partly specified) , please.
15.4 µM

Recorded GI50 of "Cc1cc(C)c2nc3nc(C)cc(C)c3c(N)c2c1" , please.
3.29 µM

Recorded GI50 of "NC1=CC(=O)c2nc3ccccc3c3ccnc1c23" , please.
3.15 µM

----------
# Test system: MDA-MB-435
# PROTOCOL DESCRIPTION: NCI tumour cell line growth inhibition, 48 h
OBSERVATION TYPE: TGI (µM)
Number only, in µM; omit the unit.

Below, each entry is followed by its recorded TGI result.
| COMPOUND | TGI [µM] |
| --- | --- |
| O=C1/C(=C/c2ccc(Cl)cc2)N=C(c2ccccc2)N1c1nc2c(Cl)cc(Cl)cc2s1 | 86.2 |
| CCOC(=O)c1c(Cl)c2c(n1Cc1cccc(OC)c1)-c1oncc1CC2 | 15.6 |

Query compound follows.
Recorded TGI of C=Cc1cc(OC)c2c(c1)c(=O)oc1c2cc(OC)c2c(O)ccc(C3OC(C)C(O)C(C)(O)C3O)c21 (stereo not given) , please.
0.00365

----------
A collection of compounds and their measured TGI
# System: NCI-H23 lung
# PROTOCOL DESCRIPTION: NCI tumour cell line growth inhibition, 48 h

| COMPOUND | RESULT |
| --- | --- |
| COc1ccc2nc3cc([N+](=O)[O-])ccc3c(Nc3ccc(S(=O)(=O)N=C(N)N)cc3)c2c1 | > 100 µM |
| CC1OC(n2c3ccccc3c3c4c(c5c6ccccc6[nH]c5c32)C(=O)N(CCN2CCOCC2)C4=O)CC(O)C1O (stereo not given) | 11.1 µM |
| N#C/C(C(=S)Nc1ccccc1)=C(/N)N1CCCC1 | > 100 µM |
| O=C(Nc1ccc(OCc2nnc(-c3ccccc3)o2)c(F)c1)Nc1ccc(Cl)c(C(F)(F)F)c1 | 8.09 µM |
| COc1cc(C2S/C(=C/c3ccccc3)C(=O)N2c2cc(Cl)c(Cl)cc2Cl)cc(OC)c1OC (stereo not given) | > 100 µM |

Query compound follows.
State its TGI on NCI-H23 lung: "NCCCNCCSSC/C=C\CSSCCNCCCN"
> 100 µM

----------
# System: TK-10 renal
# PROTOCOL DESCRIPTION: NCI tumour cell line growth inhibition, 48 h
A collection of compounds and their measured TGI

| COMPOUND | TGI |
| --- | --- |
| CCOC(=O)N/N=C(\Cc1ccc([N+](=O)[O-])cc1)OCC | > 100 µM |

Recorded TGI of COC(=O)C1(Cc2cccc(C)c2)Cc2c(C)cccc2C1=O (configuration not stated) , please.
> 100 µM

Recorded TGI of "C/C=N\n1c(C)c(C#N)c(C#N)c1N" , please.
> 100 µM

----------
# Test system: EKVX NSCLC
# PROTOCOL DESCRIPTION: NCI tumour cell line growth inhibition, 48 h
OBSERVATION TYPE: TGI

Recorded TGI of COc1cc(C2S/C(=C/c3ccccc3)C(=O)N2c2cc(Cl)c(Cl)cc2Cl)cc(OC)c1OC (stereo not drawn) , please.
> 88.6 µM

Recorded TGI of "CCC(CCN)(CCN)[N+](=O)[O-]" , please.
> 100 µM

Recorded TGI of N#CCCSC(=S)C1CCCC1=N (stereo not drawn) , please.
> 100 µM

----------
# Test system: MDA-MB-435
# PROTOCOL DESCRIPTION: NCI tumour cell line growth inhibition, 48 h
A collection of compounds and their measured TGI

| COMPOUND | TGI |
| --- | --- |
| COC(=O)C1(Cc2cccc(C)c2)Cc2c(C)cccc2C1=O (stereo not drawn) | 41.3 µM |
| CO/N=C(\C(=O)Nc1cncs1)c1csc(N)n1 | > 10 µM |

State its TGI on MDA-MB-435: "O=C1C(c2c(O)[nH]c3ccccc23)=Nc2ccc(Br)cc21"
> 100 µM

State its TGI on MDA-MB-435: "Cc1c(-c2nnc(-c3ccc(F)cc3)o2)nnn1-c1ccnc2c(C(F)(F)F)cccc12"
> 100 µM

State its TGI on MDA-MB-435: "C(=NCCCN1CCN(CCCN=Cc2cccc3ccccc23)CC1)c1cccc2ccccc12"
96.8 µM

State its TGI on MDA-MB-435: CC(=O)C1=C(C)N2C(=NC3=C(CCc4ccccc43)C2c2cccc(Br)c2)S1 (stereo not drawn)
> 100 µM

State its TGI on MDA-MB-435: "CN=C(N)/N=C(\N)Nc1cc2ccccc2c2ccccc12"
32.4 µM

State its TGI on MDA-MB-435: "COCCN(CCOC)C(=O)COc1c2cc(C(C)(C)C)cc1Cc1cc(C(C)(C)C)cc(c1OCC(=O)N(CCOC)CCOC)Cc1cc(C(C)(C)C)cc(c1OCC(=O)N(CCOC)CCOC)Cc1cc(C(C)(C)C)cc(c1OCC(=O)N(CCOC)CCOC)Cc1cc(C(C)(C)C)cc(c1OCC(=O)N(CCOC)CCOC)C2"
10.7 µM

State its TGI on MDA-MB-435: Clc1ccc(C2=C(c3ccccc3)C(c3ccc(Cl)cc3)N3C(=N[C@H]4CCCC[C@@H]43)N2)cc1 (stereo partly drawn)
27.6 µM

State its TGI on MDA-MB-435: Cc1ccc([N+](=O)[O-])cc1S(=O)(=O)Nc1ccc(C2=NN(C(=O)c3ccccc3)C(c3cccs3)C2)cc1 (stereo not drawn)
> 100 µM
